List of remaining at 2 h, 20000 µM values.
# ASSAY PROTOCOL: Stability of the compound in aqueous solution at 20 mM measured at <= 2 hrs relative to control
# Format: physicochemical
# CONDITION DESCRIPTION: read-out: Stability

- COMPOUND: "Oc1ccc(NC(=S)c2ccc(O)c(O)c2)cc1O"
  SCALE UNIT: "%"
  remaining at 2 h, 20000 µM: 70
- COMPOUND: "Oc1cc(O)cc(/C=C/c2ccc(O)c(O)c2)c1 [PICEATANNOL]"
  SCALE UNIT: "%"
  remaining at 2 h, 20000 µM: 70

----------
# ASSAY PROTOCOL: Antioxidant activity assessed as ABTS radical scavenging activity incubated for 12 hrs under dark condition by absorbance based plate reader analysis
# Assay type: functional
Recorded EC50, one value per entry.
RECORDED METRIC: EC50

- COMPOUND: "Oc1cc(O)cc(C(=S)Nc2ccc(O)c(O)c2)c1"
  ASSAY VALUE: "12 µM"
- COMPOUND: "Cc1c(C)c2c(c(C)c1O)CCC(C)(C(=O)O)O2 (centres undefined) [TROLOX]"
  ASSAY VALUE: "24 µM"
- COMPOUND: "O=c1c(O)c(-c2ccc(O)c(O)c2)oc2cc(O)cc(O)c12 [QUERCETIN]"
  ASSAY VALUE: "10 µM"
- COMPOUND: "Oc1ccc(NC(=S)c2ccc(O)c(O)c2)cc1O"
  ASSAY VALUE: "12 µM"

----------
IC50, Arginase-1 (Bos taurus, UniProt Q2KJ64): measured values

- MOLECULE: "Nc1cccc(C(=S)Nc2ccc(O)c(O)c2)c1"
  MODIFIER SIGN: "="
  IC50 (µM): 161
- MOLECULE: "Oc1ccc(/C=C/c2ccccc2)cc1O [(E)-3,4-STILBENDIOL]"
  MODIFIER SIGN: "="
  IC50 (µM): 97
- MOLECULE: "O=C(Nc1ccccc1)c1ccc(O)c(O)c1"
  MODIFIER SIGN: "="
  IC50 (µM): 1000
- MOLECULE: "Nc1cccc(NC(=O)c2ccc(O)c(O)c2)c1"
  MODIFIER SIGN: "="
  IC50 (µM): 440
- MOLECULE: "Oc1cc(O)cc(NC(=S)c2ccc(O)c(O)c2)c1"
  MODIFIER SIGN: "="
  IC50 (µM): 66
- MOLECULE: "O=C(Nc1cc(O)cc(O)c1)c1ccc(O)c(O)c1"
  MODIFIER SIGN: "="
  IC50 (µM): 202
- MOLECULE: "Oc1cc(O)cc(/C=C/c2ccc(O)c(O)c2)c1 [PICEATANNOL]"
  MODIFIER SIGN: "="
  IC50 (µM): 20
- MOLECULE: "Oc1cccc(C(=S)Nc2ccc(O)c(O)c2)c1"
  MODIFIER SIGN: "="
  IC50 (µM): 16
- MOLECULE: "O=S(=O)(Nc1ccc(O)c(O)c1)c1cccc(O)c1"
  MODIFIER SIGN: "="
  IC50 (µM): 325
- MOLECULE: "O=C(c1ccc(O)c(O)c1)N(CCCCO)c1ccc(O)c(O)c1"
  MODIFIER SIGN: "="
  IC50 (µM): 88
- MOLECULE: "O=S(=O)(Nc1ccc(O)c(O)c1)c1cc(O)ccc1O"
  MODIFIER SIGN: ">"
  IC50 (µM): 500
- MOLECULE: "O=C(Nc1ccc(O)c(O)c1)c1ccc(O)c(O)c1"
  MODIFIER SIGN: "="
  IC50 (µM): 20

----------
# ASSAYED SYSTEM: Arginase-1 (Homo sapiens, UniProt P05089)
# Sequence (P05089 whole entry): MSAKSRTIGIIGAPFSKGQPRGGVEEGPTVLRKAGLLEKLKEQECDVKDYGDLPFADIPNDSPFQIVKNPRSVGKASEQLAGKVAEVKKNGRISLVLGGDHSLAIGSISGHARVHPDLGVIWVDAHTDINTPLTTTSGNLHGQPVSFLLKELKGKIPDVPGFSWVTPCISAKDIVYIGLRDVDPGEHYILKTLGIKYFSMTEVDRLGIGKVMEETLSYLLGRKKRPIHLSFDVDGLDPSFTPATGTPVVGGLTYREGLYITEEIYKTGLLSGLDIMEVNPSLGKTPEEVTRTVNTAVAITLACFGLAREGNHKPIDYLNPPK
# ASSAY PROTOCOL: Inhibition of recombinant human Arg-1 using L-ARG as substrate incubated for 60 mins by OPA colorimetric analysis
pIC50: −log10 of the molar value.

- LINE NOTATION: "Oc1cc(O)cc(C(=S)Nc2ccc(O)c(O)c2)c1"
  pIC50: 4.49
- LINE NOTATION: "Oc1cc(O)cc(/C=C/c2ccc(O)c(O)c2)c1"
  pIC50: 4.55
- LINE NOTATION: "Oc1cccc(C(=S)Nc2ccc(O)c(O)c2)c1"
  pIC50: 4.55
- LINE NOTATION: "Oc1ccc(NC(=S)c2ccc(O)c(O)c2)cc1O"
  pIC50: 4.26
- LINE NOTATION: "Oc1ccc(C(=S)Nc2ccc(O)c(O)c2)cc1"
  pIC50: 4.42
- LINE NOTATION: "N[C@@H](CSCCB(O)O)C(=O)O"
  pIC50: 5.05

----------
# ASSAY PROTOCOL: Antioxidant activity assessed as ABTS radical scavenging activity incubated for 12 hrs under dark condition by absorbance based plate reader analysis
# Type: functional
pEC50: −log10 of the molar value.
Item-by-item account of pEC50

- COMPOUND: "Oc1cccc(C(=S)Nc2ccc(O)c(O)c2)c1"
  pEC50: 4.92
- COMPOUND: "O=C(Nc1ccc(O)c(O)c1)c1cc(O)cc(O)c1"
  pEC50: 5.30
- COMPOUND: "Oc1ccc(C(=S)Nc2ccc(O)c(O)c2)cc1"
  pEC50: 5.00
- COMPOUND: "Oc1cc(O)cc(/C=C/c2ccc(O)c(O)c2)c1 [PICEATANNOL]"
  pEC50: 4.89
- COMPOUND: "O/N=C(/Nc1ccc(O)c(O)c1)c1ccc(O)c(O)c1"
  pEC50: 4.92
- COMPOUND: "O=C(Nc1ccc(O)c(O)c1)c1ccc(O)c(O)c1"
  pEC50: 4.92

Where do these numbers come from? They come from ChEMBL document CHEMBL6103595.
